# Tested on: ATP;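 also: ATP exposure 15 min at 22 °C before imaging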
# protocol_summary: switch fluorescence ratio, 500 uM ATP over buffer (Cy3 cluster intensity, sum of 5 cycles each) (fold (ratio)); higher = stronger signal-on switching upon ATP binding; sequences stand for … in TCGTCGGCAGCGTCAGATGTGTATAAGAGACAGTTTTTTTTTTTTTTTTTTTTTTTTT…TC
# condition_set: aptamer strand: ATP DNA aptamer (quencher-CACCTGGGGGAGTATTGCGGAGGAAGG + anchor), 100 nM annealed; ATP concentration: 500 uM
measured_attribute: switch fluorescence ratio

>  <sequence_entry>
TTGGTGTGTC

>  <result>
1.04

$$$$
>  <sequence_entry>
TTTCCTGTGT

>  <result>
1.01

$$$$
>  <sequence_entry>
GCGGGGAGGG

>  <result>
1.05

$$$$
>  <sequence_entry>
ATTGTATTG

>  <result>
0.986

$$$$
>  <sequence_entry>
GATGACAGTG

>  <result>
0.969

$$$$
>  <sequence_entry>
CATACACATT

>  <result>
1.06

$$$$
>  <sequence_entry>
AGAGAAGACC

>  <result>
1

$$$$
>  <sequence_entry>
TGCGGTTATG

>  <result>
1.07

$$$$
>  <sequence_entry>
TTTTTGGCCT

>  <result>
1.05

$$$$
>  <sequence_entry>
AGTTACAGCT

>  <result>
1.03

$$$$
>  <sequence_entry>
TGCTGTTCTG

>  <result>
1.03

$$$$
>  <sequence_entry>
GGTTTCGTTT

>  <result>
1

$$$$
>  <sequence_entry>
TTATGTGAGA

>  <result>
1.01

$$$$
>  <sequence_entry>
GGTGCGTAGG

>  <result>
1

$$$$
>  <sequence_entry>
TATTTTTACA

>  <result>
1.01

$$$$
>  <sequence_entry>
GTTTTTTGTC

>  <result>
1.03

$$$$
>  <sequence_entry>
CGTTCAATGT

>  <result>
1.03

$$$$
>  <sequence_entry>
GGTTGATAGA

>  <result>
1.01

$$$$
>  <sequence_entry>
ATAGAAGGGA

>  <result>
0.991

$$$$
>  <sequence_entry>
GATACCGGTG

>  <result>
1.17

$$$$
>  <sequence_entry>
GATTATAGGT

>  <result>
1.01

$$$$

====

Measured switch fluorescence ratio values are reported for all entries that follow.
# Tested on: ATP;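 also: ATP exposure 15 min at 22 °C before imaging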
# protocol_summary: switch fluorescence ratio, 500 uM ATP over buffer (Cy3 cluster intensity, sum of 5 cycles each) (fold (ratio)); higher = stronger signal-on switching upon ATP binding; sequences stand for … in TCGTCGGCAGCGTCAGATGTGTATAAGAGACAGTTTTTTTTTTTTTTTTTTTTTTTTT…TC
# condition_set: aptamer strand: ATP DNA aptamer (quencher-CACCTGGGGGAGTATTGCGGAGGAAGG + anchor), 100 nM annealed; ATP concentration: 500 uM
measured_attribute: switch fluorescence ratio

>  <sequence_entry>
TTATTCTGCT

>  <assay_system>
ATP;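 also: ATP exposure 15 min at 22 °C before imaging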

>  <measured_attribute>
switch fluorescence ratio

>  <numeric_result>
1.03

$$$$
>  <sequence_entry>
CGTTTTATCA

>  <assay_system>
ATP;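 also: ATP exposure 15 min at 22 °C before imaging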

>  <measured_attribute>
switch fluorescence ratio

>  <numeric_result>
0.991

$$$$
>  <sequence_entry>
ATACTATCTA

>  <assay_system>
ATP;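 also: ATP exposure 15 min at 22 °C before imaging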

>  <measured_attribute>
switch fluorescence ratio

>  <numeric_result>
1.03

$$$$
>  <sequence_entry>
GGGTCAGACG

>  <assay_system>
ATP;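 also: ATP exposure 15 min at 22 °C before imaging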

>  <measured_attribute>
switch fluorescence ratio

>  <numeric_result>
1.06

$$$$
>  <sequence_entry>
CGTGGGTCCA

>  <assay_system>
ATP;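 also: ATP exposure 15 min at 22 °C before imaging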

>  <measured_attribute>
switch fluorescence ratio

>  <numeric_result>
1.02

$$$$
>  <sequence_entry>
GGAGAGTGCT

>  <assay_system>
ATP;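 also: ATP exposure 15 min at 22 °C before imaging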

>  <measured_attribute>
switch fluorescence ratio

>  <numeric_result>
0.985

$$$$
>  <sequence_entry>
ACTGTACACC

>  <assay_system>
ATP;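 also: ATP exposure 15 min at 22 °C before imaging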

>  <measured_attribute>
switch fluorescence ratio

>  <numeric_result>
1.46

$$$$
>  <sequence_entry>
AGAGGTTAGG

>  <assay_system>
ATP;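 also: ATP exposure 15 min at 22 °C before imaging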

>  <measured_attribute>
switch fluorescence ratio

>  <numeric_result>
0.987

$$$$
>  <sequence_entry>
TTATACCTTA

>  <assay_system>
ATP;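 also: ATP exposure 15 min at 22 °C before imaging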

>  <measured_attribute>
switch fluorescence ratio

>  <numeric_result>
1.06

$$$$
>  <sequence_entry>
GGGTATTATG

>  <assay_system>
ATP;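 also: ATP exposure 15 min at 22 °C before imaging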

>  <measured_attribute>
switch fluorescence ratio

>  <numeric_result>
1.02

$$$$

====

# System: ATP;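 also: ATP exposure 15 min at 22 °C before imaging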
# protocol_summary: switch fluorescence ratio, 500 uM ATP over buffer (Cy3 cluster intensity, sum of 5 cycles each) (fold (ratio)); higher = stronger signal-on switching upon ATP binding; sequences stand for … in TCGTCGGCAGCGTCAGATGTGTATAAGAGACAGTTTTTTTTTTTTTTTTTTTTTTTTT…TC
# condition_set: aptamer strand: ATP DNA aptamer (quencher-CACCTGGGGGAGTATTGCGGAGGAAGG + anchor), 100 nM annealed; ATP concentration: 500 uM

>  <sequence_entry>
GAGTGTAAGA

>  <switch fluorescence ratio>
1

$$$$
>  <sequence_entry>
TAACGGGTG

>  <switch fluorescence ratio>
1.08

$$$$
>  <sequence_entry>
TAGTTGAACA

>  <switch fluorescence ratio>
1.01

$$$$
>  <sequence_entry>
CTCGGCGTCC

>  <switch fluorescence ratio>
1.14

$$$$
>  <sequence_entry>
TTCGAGGGGG

>  <switch fluorescence ratio>
1.01

$$$$
>  <sequence_entry>
TGGTGTATGG

>  <switch fluorescence ratio>
1.01

$$$$
>  <sequence_entry>
GCTCTAATGC

>  <switch fluorescence ratio>
1.17

$$$$
>  <sequence_entry>
CAATGTGACG

>  <switch fluorescence ratio>
1.03

$$$$
>  <sequence_entry>
TATTTGGATG

>  <switch fluorescence ratio>
1.03

$$$$
>  <sequence_entry>
TGGGGGGTAG

>  <switch fluorescence ratio>
0.988

$$$$
>  <sequence_entry>
ATATAGGTTG

>  <switch fluorescence ratio>
0.974

$$$$
>  <sequence_entry>
ATTATGAATG

>  <switch fluorescence ratio>
0.989

$$$$
>  <sequence_entry>
GGATGAGTTA

>  <switch fluorescence ratio>
0.983

$$$$
>  <sequence_entry>
TTACGGTTT

>  <switch fluorescence ratio>
1

$$$$
>  <sequence_entry>
AAGTCAGGGG

>  <switch fluorescence ratio>
1.05

$$$$
>  <sequence_entry>
AAGTATATGA

>  <switch fluorescence ratio>
1

$$$$
>  <sequence_entry>
GCAGAGGGTG

>  <switch fluorescence ratio>
1.13

$$$$
>  <sequence_entry>
TTAGTTGGGA

>  <switch fluorescence ratio>
0.983

$$$$
>  <sequence_entry>
TTCCGGGCCC

>  <switch fluorescence ratio>
1.16

$$$$
>  <sequence_entry>
ACCCAGAAGG

>  <switch fluorescence ratio>
1.08

$$$$
>  <sequence_entry>
TTGGCATAAG

>  <switch fluorescence ratio>
1.16

$$$$
